The measurements presented in this section are drawn from patent US9676732B2.

target: human mGlu4 receptor (Homo sapiens (Human)); assay: Ca2+ mobilization in vitro assay on recombinant human mGlu4 expressed in HEK293 cells (mGlu4 PAM); type: cell-based; conditions: maximal response in % of the maximal stimulatory effect obtained with saturating concentrations of L-AP4
Sequence (Q14833 33-912): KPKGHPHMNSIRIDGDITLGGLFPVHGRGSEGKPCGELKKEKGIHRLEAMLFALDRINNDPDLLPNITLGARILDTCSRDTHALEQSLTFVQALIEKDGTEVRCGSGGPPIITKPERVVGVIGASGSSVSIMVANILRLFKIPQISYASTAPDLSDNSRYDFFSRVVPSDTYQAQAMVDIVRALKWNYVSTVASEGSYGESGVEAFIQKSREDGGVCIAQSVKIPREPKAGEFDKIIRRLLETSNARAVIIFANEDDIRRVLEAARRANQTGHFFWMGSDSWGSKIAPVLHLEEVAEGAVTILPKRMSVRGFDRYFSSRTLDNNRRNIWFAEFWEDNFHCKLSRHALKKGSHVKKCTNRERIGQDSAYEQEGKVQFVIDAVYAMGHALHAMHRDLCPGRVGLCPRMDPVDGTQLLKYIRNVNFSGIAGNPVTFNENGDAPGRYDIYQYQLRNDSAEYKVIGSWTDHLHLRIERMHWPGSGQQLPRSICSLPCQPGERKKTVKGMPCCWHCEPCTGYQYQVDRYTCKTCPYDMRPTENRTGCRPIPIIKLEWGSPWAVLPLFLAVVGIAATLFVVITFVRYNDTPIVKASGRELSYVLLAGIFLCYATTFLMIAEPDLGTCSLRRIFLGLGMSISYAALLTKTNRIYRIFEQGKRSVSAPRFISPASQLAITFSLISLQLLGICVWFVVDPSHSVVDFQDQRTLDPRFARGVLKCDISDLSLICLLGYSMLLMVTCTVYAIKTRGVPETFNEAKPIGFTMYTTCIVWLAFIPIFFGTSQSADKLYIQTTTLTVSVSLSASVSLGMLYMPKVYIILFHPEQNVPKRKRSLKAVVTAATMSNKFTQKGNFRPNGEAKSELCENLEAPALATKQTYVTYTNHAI
readout: Eff. (%)
Report the figure in % without appending any unit label.

Form field: reported Eff. (%) of Cc1cccc2c1c(=O)n(-c1ccc(C#Cc3ccccc3)cc1Cl)c(=O)n2C [Example 41] 98

Next: Cc1cccc2c(=O)n(-c3c(F)cc(C#Cc4cccnc4)cc3Cl)c(=O)n(C)c12 [Example 43] 107

Next: CC(C)n1c(=O)n(-c2ccc(C#Cc3cccnc3)cc2Cl)c(=O)c2nccnc21 [Example 22] 88

Next: CCn1c(=O)n(-c2ccc(C#Cc3ccccc3)cc2Cl)c(=O)c2ccccc21 [Example 14] 97

Next: Cc1cccc2c(=O)n(-c3ncc(C#Cc4ccccc4)cc3Cl)c(=O)n(C)c12 [Example 46] 113

Next: O=c1c2cccc3c2n(c(=O)n1-c1c(F)cc(C#Cc2ccccc2)cc1F)CC3 [Example 29] 78

Next: Cn1c(=O)n(-c2ccc(C#Cc3ccccc3)cc2Cl)c(=O)c2ccc(Cl)cc21 [Example 4] 120

Next: CC(C)n1c(=O)n(-c2ncc(C#Cc3cccnc3)cc2Cl)c(=O)c2nn(C)cc21 [Example 59] 146
